# Read-out: Lipase C (LIPC), LIPC (gene 3990)
# method_notes: LTEA_HepaRG_LIPC: Life Technologies and Expression Analysis (LTEA) Assay for Lipase C (LIPC) using HepaRG (AID 2283514)
# measurement_conditions: mRNA level, 48 h; actives raise or lower the signal
Calls of active or inactive are those of the source. The calls were made as follows: active = hit-call score of the fitted dose curve at least 0.9, where 1 is the maximum; inactive = score below 0.9.
Bench note: report the call from active, inactive

[[record]]
compound = "CCCC(=O)OCC"
discrete_label = "inactive"

[[record]]
compound = "Cc1ccc(S(=O)(=O)O)cc1C"
discrete_label = "inactive"

[[record]]
compound = "CCOC(=O)CC(CC(=O)OCC)(OC(C)=O)C(=O)OCC"
discrete_label = "inactive"

[[record]]
compound = "COc1ccc(-n2nc(C(F)F)cc2-c2ccc(S(C)=O)cc2)cc1 (stereo not given)"
discrete_label = "inactive"

[[record]]
compound = "CCOCCO"
discrete_label = "inactive"

[[record]]
compound = "Cc1ccc(N)cc1O"
discrete_label = "inactive"


Qu. In this assay, the call recorded for Cc1c(-c2cccnc2)c2ccccc2n1CCCCC(=O)O was what?
Ans. inactive

Qu. Fill in: this test's call for CCC(C)(C)C(=O)O[C@H]1C[C@@H](C)C=C2C=C[C@H](C)[C@H](CC[C@@H]3C[C@@H](O)CC(=O)O3)[C@H]21 is ___
Ans. inactive

Qu. Please share the test call associated with O=C(CCCCCCCCc1cccnc1)N1CCC(C=C(c2ccccc2)c2ccccc2)CC1 .
Ans. active

Qu. Tell me the assay call for O=C1CCC(N2C(=O)c3ccccc3C2=O)C(=O)N1 (stereo not given) please.
Ans. inactive
